Catalogue of molecules with associated pIC50
Molecular target: human TLR7 (Homo sapiens (Human), UniProt Q9NYK1)
Sequence (Q9NYK1 27-1049): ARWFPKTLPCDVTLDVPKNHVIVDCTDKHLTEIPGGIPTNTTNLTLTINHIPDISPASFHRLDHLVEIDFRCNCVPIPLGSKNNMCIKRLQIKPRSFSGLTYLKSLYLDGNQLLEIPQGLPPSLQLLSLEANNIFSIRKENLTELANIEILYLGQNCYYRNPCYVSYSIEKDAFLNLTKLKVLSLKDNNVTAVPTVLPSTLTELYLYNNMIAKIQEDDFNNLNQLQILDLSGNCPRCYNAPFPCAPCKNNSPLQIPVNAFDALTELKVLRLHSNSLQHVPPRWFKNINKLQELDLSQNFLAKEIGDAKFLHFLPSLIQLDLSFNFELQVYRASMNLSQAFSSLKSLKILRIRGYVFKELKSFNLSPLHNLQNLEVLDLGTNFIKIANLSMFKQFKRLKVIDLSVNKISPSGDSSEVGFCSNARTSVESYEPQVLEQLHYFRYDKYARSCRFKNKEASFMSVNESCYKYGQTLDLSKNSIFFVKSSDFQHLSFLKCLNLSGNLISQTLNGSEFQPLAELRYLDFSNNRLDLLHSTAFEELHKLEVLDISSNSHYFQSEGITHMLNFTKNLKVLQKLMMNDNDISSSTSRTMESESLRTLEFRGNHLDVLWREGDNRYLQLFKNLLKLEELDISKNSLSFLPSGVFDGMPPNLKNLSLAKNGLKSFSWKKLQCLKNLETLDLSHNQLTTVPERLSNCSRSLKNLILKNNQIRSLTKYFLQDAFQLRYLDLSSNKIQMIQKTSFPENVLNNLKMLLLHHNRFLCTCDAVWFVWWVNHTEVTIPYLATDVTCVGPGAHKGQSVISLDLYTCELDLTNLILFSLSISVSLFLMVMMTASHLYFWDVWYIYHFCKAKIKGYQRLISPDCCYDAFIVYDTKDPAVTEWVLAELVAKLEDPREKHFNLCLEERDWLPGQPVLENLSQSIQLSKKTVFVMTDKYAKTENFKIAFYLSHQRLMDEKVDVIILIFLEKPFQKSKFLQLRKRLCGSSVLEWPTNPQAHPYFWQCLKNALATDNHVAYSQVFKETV
Experiment: TLR7 inhibition reporter assay (HEK-Blue cells, SEAP reporter, gardiquimod stimulation)
Format: cell-based
Conditions: HEK-Blue cells overexpressing human TLR7, gardiquimod 7.5 μM
Quick note: pIC50 means taking -log10 of the concentration in moles per liter.

Sample answers from the record:
Molecule	pIC50
Cc1cc(-c2[nH]c3ccc(C4CCNCC4)cc3c2C(C)C)cc(N)n1	7.70
Cc1cc(-c2[nH]c3ccc(C4CCN(CC(=O)N5CCS(=O)(=O)CC5)CC4)cc3c2C(C)C)cc(C)n1	8.92
Cc1cc(-c2[nH]c3ccc(C4CCNCC4)cc3c2C(C)(C)C)cc(C)n1	8.04
CCC(C)NC(=O)CN1CCC(c2ccc3[nH]c(-c4cc(C)nc(C)c4)c(C(C)C)c3c2)CC1 (centres unmarked)	7.94
Cc1cc(-c2[nH]c3ccc(C4CCN(C5CCOCC5)CC4)cc3c2C(C)C)c(F)cn1	7.68
CNCCN1CCC(c2ccc3[nH]c(-c4ccnc(C(F)(F)F)c4)c(C)c3c2)CC1	6.39
CC(C)c1c(-c2ccnc(CO)c2)[nH]c2ccc(C3CCNCC3)cc12	7.09

# next molecule below
Look at this molecule and give its reported pIC50. Cc1cc(-c2[nH]c3ccc(C4CCNCC4)cc3c2C(C)C)cc(F)n1 8.74

----------
Biological target: human TLR9 (Homo sapiens (Human))
Sequence (Q9NR96 26-1032): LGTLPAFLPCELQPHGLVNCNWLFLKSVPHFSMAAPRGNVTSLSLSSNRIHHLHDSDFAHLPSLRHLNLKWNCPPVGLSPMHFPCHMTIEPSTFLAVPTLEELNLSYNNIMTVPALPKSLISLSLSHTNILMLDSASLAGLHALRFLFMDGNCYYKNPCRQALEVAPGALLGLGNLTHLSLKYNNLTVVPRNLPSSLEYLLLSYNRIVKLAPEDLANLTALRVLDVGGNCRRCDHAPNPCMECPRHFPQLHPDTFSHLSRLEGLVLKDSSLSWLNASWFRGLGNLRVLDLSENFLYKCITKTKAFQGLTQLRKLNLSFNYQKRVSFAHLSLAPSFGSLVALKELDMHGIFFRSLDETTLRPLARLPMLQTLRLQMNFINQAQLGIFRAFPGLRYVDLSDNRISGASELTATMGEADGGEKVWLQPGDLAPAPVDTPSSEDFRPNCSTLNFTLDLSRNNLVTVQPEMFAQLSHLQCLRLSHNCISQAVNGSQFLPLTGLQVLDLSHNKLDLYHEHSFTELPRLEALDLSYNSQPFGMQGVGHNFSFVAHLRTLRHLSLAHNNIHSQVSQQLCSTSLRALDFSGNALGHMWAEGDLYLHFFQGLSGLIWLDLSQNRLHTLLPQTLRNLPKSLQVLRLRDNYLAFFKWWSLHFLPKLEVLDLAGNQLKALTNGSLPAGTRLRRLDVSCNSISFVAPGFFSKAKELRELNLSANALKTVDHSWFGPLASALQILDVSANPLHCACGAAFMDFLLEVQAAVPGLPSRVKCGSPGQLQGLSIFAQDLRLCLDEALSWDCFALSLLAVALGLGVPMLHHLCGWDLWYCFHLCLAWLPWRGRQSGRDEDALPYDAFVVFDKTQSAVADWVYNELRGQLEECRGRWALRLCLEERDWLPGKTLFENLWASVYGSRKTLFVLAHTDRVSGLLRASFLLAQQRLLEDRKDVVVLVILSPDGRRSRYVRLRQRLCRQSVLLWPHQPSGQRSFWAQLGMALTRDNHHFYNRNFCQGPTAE
Assay: TLR9 inhibition reporter assay (HEK-Blue cells, SEAP reporter, ODN2006 stimulation);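 further: compounds tested over 0.05 nM to 50 µM, 22 h incubation, inhibition taken as SEAP signal drop from agonist plus DMSO wells toward a known inhibitor control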
Details: read-out: TLR9 IC50, HEK-Blue cells overexpressing human TLR9, ODN2006 5 nM
Outcome Measure: IC50 (nM)
Answer in nM, number only, no unit symbol.

Worked set:
Compound	Unit Spec	IC50
Cc1cc(-c2[nH]c3ccc(C4CCNCC4)cc3c2C(C)C)c(C)c(C)n1	nM	955
CCc1c(-c2ccnc(OC)c2)[nH]c2ccc(C3CCN(C4CCCN(C5CCCC5)CC4)CC3)cc12 (stereo not drawn)	nM	252
Cc1cc(-c2[nH]c3ccc(C4CCN(C(=O)c5cn(C)nc5C)CC4)cc3c2C(C)C)cc(C)n1	nM	40000
Cc1cc(-c2[nH]c3ccc(C4CCN(CC(=O)NCC(C)(C)O)CC4)cc3c2C(C)C)cc(C)n1	nM	416
CCOCCNCC(=O)N1CCC(c2ccc3[nH]c(-c4cc(C)nc(C)c4)c(C(C)C)c3c2)CC1	nM	1360
Cc1cc(-c2[nH]c3ccc(C4CCN(CC(=O)NCC(F)(F)F)CC4)cc3c2C(C)C)cc(C)n1	nM	1220

Entry Cc1cc(-c2[nH]c3ccc(C4CCN(C(=O)C5CCOC5)CC4)cc3c2C(C)C)cc(C)n1 (stereo not drawn) : reported IC50 = ? 46600

Given the entry Cc1cc(-c2[nH]c3ccc(C4CCN(CC(=O)N(C)C)CC4)cc3c2C(C)C)cc(C)n1 , report its measured IC50. 359

----------
Target: human TLR8 (Homo sapiens (Human), UniProt Q9NR97)
Sequence (Q9NR97 27-1041): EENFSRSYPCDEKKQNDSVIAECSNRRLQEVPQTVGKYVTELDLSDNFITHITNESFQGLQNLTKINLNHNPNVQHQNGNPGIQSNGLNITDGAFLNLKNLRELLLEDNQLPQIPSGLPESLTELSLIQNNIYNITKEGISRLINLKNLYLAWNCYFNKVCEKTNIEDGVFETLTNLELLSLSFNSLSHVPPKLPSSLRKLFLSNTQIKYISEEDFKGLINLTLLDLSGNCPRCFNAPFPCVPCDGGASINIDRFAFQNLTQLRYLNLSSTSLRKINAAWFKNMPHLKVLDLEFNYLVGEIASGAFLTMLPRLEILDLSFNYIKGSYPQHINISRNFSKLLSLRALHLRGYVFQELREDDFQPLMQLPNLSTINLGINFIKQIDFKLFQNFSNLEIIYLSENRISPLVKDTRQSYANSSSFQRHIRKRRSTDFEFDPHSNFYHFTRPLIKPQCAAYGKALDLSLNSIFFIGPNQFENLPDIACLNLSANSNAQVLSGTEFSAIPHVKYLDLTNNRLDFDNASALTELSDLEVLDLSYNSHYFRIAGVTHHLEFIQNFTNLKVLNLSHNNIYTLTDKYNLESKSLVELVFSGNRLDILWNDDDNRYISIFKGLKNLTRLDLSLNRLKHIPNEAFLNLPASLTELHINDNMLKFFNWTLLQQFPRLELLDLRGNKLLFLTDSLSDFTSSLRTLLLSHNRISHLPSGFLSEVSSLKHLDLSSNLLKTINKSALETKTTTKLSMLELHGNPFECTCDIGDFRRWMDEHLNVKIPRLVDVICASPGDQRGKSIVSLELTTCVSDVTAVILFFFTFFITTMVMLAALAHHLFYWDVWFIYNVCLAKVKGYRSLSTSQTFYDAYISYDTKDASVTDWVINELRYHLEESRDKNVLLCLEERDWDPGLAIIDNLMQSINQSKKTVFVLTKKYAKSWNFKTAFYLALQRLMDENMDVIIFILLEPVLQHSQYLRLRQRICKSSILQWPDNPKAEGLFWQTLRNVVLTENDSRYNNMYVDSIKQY
Assay: TLR8 inhibition reporter assay (HEK-Blue cells, SEAP reporter, R848 stimulation);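 further: compounds tested from 0.05 nM to 50 µM, 22 h at 37 °C, SEAP measured with HEK-Blue Detection, inhibition relative to agonist plus DMSO versus a known inhibitor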
Conditions: read-out: TLR8 IC50, HEK-Blue cells overexpressing human TLR8, R848 15.9 μM
Overview of recorded pIC50 for various compounds
// pIC50 is dimensionless: -log10 of concentration (M)

Compound	Study System	pIC50
Cc1cc(-c2[nH]c3ccc(C4CCN(C5CCOC(C)(C)C5)CC4)cc3c2C(C)C)cc(C)n1 (centres unmarked)	human TLR8 (Homo sapiens (Human), UniProt Q9NR97)	8.19
CNCCN1CCC(c2ccc3[nH]c(-c4cc(Cl)ncc4OC)c(C)c3c2)CC1	human TLR8 (Homo sapiens (Human), UniProt Q9NR97)	7.03
Cc1cc(-c2[nH]c3ccc(C4CCN(CC(F)F)CC4)cc3c2C(C)C)c(F)cn1	human TLR8 (Homo sapiens (Human), UniProt Q9NR97)	7.79
Cc1cc(-c2[nH]c3ccc(C4CCN(CC5CC5)CC4)cc3c2C(C)C)cc(C)n1	human TLR8 (Homo sapiens (Human), UniProt Q9NR97)	8.49
Cc1cc(-c2[nH]c3ccc(C4CCN(C(=O)CCNc5ncccn5)CC4)cc3c2C(C)C)cc(C)n1	human TLR8 (Homo sapiens (Human), UniProt Q9NR97)	7.07

// lookup pIC50 for CCc1c(-c2ccnc(-c3noc(N)n3)c2)[nH]c2ccc(C3CCNCC3)cc12 6.26

Given Cc1cc(-c2[nH]c3ccc(C4CCN(CC(=O)NC5CC5)CC4)cc3c2C(C)C)cc(C)n1 , state its recorded pIC50. 8.19

Entry CC(C)c1c(-c2ccncc2)[nH]c2ccc(C3CCN(C4CCN(C)CC4)CC3)cc12 : reported pIC50 = ? 8.22

----------
Target: human TLR7 (Homo sapiens (Human))
Test: TLR7 inhibition reporter assay (HEK-Blue cells, SEAP reporter, gardiquimod stimulation)
Assay type: cell-based
Settings: HEK-Blue cells overexpressing human TLR7, gardiquimod 7.5 μM
pIC50: −log10 of the molar value.
Please use 1 whenever pIC50 is not below 8, and -1 whenever it is.

Example entries begin here.
Compound	Study System	Class
Cc1nc(C)c(C)c(-c2[nH]c3ccc(C4CCNCC4)cc3c2C(C)C)c1C [Example 43]	human TLR7 (Homo sapiens (Human))	-1
CCc1c(-c2ccnc(Cl)c2)[nH]c2ccc(C3CCNCC3)cc12 [Example 62]	human TLR7 (Homo sapiens (Human))	-1

Quick check: does Cc1cc(-c2[nH]c3ccc(C4CCN(C(=O)CN5CCOC[C@H]5CO)CC4)cc3c2C(C)C)cc(C)n1 [Example 400] have pIC50 greater than or equal to 8? 1

----------
Biological target: human TLR8 (Homo sapiens (Human))
Assay: TLR8 inhibition reporter assay (HEK-Blue cells, SEAP reporter, R848 stimulation)
Settings: read-out: TLR8 IC50, HEK-Blue cells overexpressing human TLR8, R848 15.9 μM
pIC50: −log10 of the molar value.
Kind request: treat 8 as inclusive, so pIC50 at 8 or higher is Met, anything lower is Not met.

Compound	Class
Cc1cc(-c2[nH]c3ccc(C4CCN(C(=O)CN(C)CC(C)C)CC4)cc3c2C(C)C)cc(C)n1 [Example 355]	Not met

For this compound, is measured pIC50 8 or higher? Cc1cc(-c2[nH]c3ccc(C4CCN(C(=O)CN5CCC[C@@H]5CO)CC4)cc3c2C(C)C)cc(C)n1 [Example 412] Not met

Is it the case that CCC(=O)N1CCC(c2ccc3[nH]c(-c4cc(C)nc(C)c4)c(C(C)C)c3c2)CC1 [Example 206] has pIC50 reaching or exceeding 8? Not met

Could you tell me if the measured pIC50 of Cc1nccc(-c2[nH]c3ccc(C4CCNCC4)cc3c2C(C)C)c1F [Example 53] reaches 8 or more? Met

Is it the case that CCN(CCO)C(=O)CN1CCC(c2ccc3[nH]c(-c4cc(C)nc(C)c4)c(C(C)C)c3c2)CC1 [Example 294] has pIC50 reaching or exceeding 8? Not met

Confirm if pIC50 reported for the compound Cc1cc(-c2[nH]c3ccc(C4CCN(CC5CCNC5)CC4)cc3c2C(C)C)cc(C)n1 (centres unmarked) [Example 466] is 8 or above. Met

Identify whether the reported pIC50 of the following compound is 8 or greater: CCc1c(-c2ccnc(N)c2)[nH]c2ccc(C3CCN(C4CCN(CC(C)C)CC4)CC3)cc12 [Example 773] Not met

Item Cc1cc(-c2[nH]c3ccc(C4CCN(C(=O)C(C)(C)C#N)CC4)cc3c2C(C)C)ccn1 [Example 615] with pIC50 of 8 or above? Not met

Textbook exercise: given the entry Cc1cc(-c2[nH]c3ccc(C4CCN(Cc5c[nH]c(C)n5)CC4)cc3c2CC(F)F)cc(C)n1 [Example 538] , state whether its pIC50 is greater than or equal to 8. Not met

Reported pIC50 reaches at least 8 for COc1cc(-c2[nH]c3ccc(C4CCN(C)CC4)cc3c2C(C)C)ccn1 [Example 638] ? Not met

hey, is pIC50 for this one >= 8? Cc1cc(-c2[nH]c3ccc(C4CCN(C(=O)C5(N)CC5)CC4)cc3c2C(C)C)cc(C)n1 [Example 195] Not met

Reported pIC50 at or above 8? Cc1cc(-c2[nH]c3ccc(C4CCN(C(=O)OCC(C)C)CC4)cc3c2C(C)C)ccn1 [Example 558] Not met

Is reported pIC50 greater than or equal to 8 here: Cc1cc(-c2[nH]c3ccc(C4CCN(CCC#N)CC4)cc3c2C(C)C)c(F)cn1 [Example 656] Met

I'd appreciate it if you could say whether Cc1cc(-c2[nH]c3ccc(C4CCN(C(=O)C5(C#N)CC5)CC4)cc3c2C(C)C)ccn1 [Example 611] has pIC50 at least equal to 8. Not met

Is pIC50 for CNCCN1CCC(c2ccc3[nH]c(-c4ccnc(C#N)c4)c(C)c3c2)CC1 [Example 755] at or above 8? Not met

Evaluate Cc1cc(-c2[nH]c3ccc(C4CCN(C(=O)CNCC(C)C)CC4)cc3c2C(C)C)cc(C)n1 [Example 338] : pIC50 at minimum 8? Not met

Form field: pIC50 at least 8? Entry: CCc1c(-c2ccnc(C)c2)[nH]c2ccc(C3CCN(CCCN(C)C)CC3)cc12 [Example 673] Not met

Decide: pIC50 of Cc1cc(-c2[nH]c3ccc(C4CCN(CC5COC5)CC4)cc3c2C(C)C)cc(C)n1 [Example 333] >= 8? Met

Could you verify whether the entry COc1c(-c2[nH]c3ccc(C4CCNCC4)cc3c2C(C)C)cc[n+]([O-])c1C [Example 57] shows pIC50 of no less than 8? Not met

hey, is pIC50 for this one >= 8? CCc1cc(-c2[nH]c3ccc(C4CCNCC4)cc3c2C(C)C)cc(OC)n1 [Example 487] Not met

Could you tell me if the measured pIC50 of CC(=O)Nc1cnc(C)cc1-c1[nH]c2ccc(C3CCNCC3)cc2c1C(C)C [Example 34] reaches 8 or more? Not met

Has Cc1cc(-c2[nH]c3ccc(C4CCN(C(=O)c5cccnc5)CC4)cc3c2C(C)C)cc(C)n1 [Example 113] a recorded pIC50 greater than or equal to 8? Not met
